assay: solvent given as SMILES; details: in O
Reported emission maximum values for the following compounds.
readout_kind: emission maximum (nm)

| chemical_string | numeric_result |
| --- | --- |
| O=C([O-])c1ccccc1C1=c2cc3c4c(c2Oc2c1cc1c5c2CCCN5CCC1)CCC[N+]=4CCC3 | 604 |
| Cn1c(=O)c(/N=N/c2cc(S(=O)(=O)O)ccc2S(=O)(=O)O)c(O)c2ccccc21 | 500 |
| N#Cc1cc(-c2ccc(F)cc2)cnc1O | 425 |
| [C-]#[N+]c1ccc(-c2ccc(NC)cc2)cc1 | 458 |
| COc1cc2cc(-c3ccc(C(=O)OCOC(C)=O)cc3C(=O)OCOC(C)=O)oc2cc1N1CCOCCOCCN(c2cc3oc(-c4ccc(C(=O)OCOC(C)=O)cc4C(=O)OCOC(C)=O)cc3cc2OC)CCOCCOCC1 | 546 |
| COCCOCCOc1ccc(OCCOCCOC)c(C=O)c1 | 485 |
| N#Cc1ccc2cc[nH]c2c1 | 375 |

* * *

experiment: solvent given as SMILES; details: in CC(C)=O
Reported emission maximum values for the following molecules.

| molecule | emission maximum [nm] |
| --- | --- |
| N#Cc1ccc(C#Cc2ccc3ccc4ccc(C#Cc5ccc(C#N)cc5)c5ccc2c3c45)cc1 | 445.8 |
| CC1=CC(C)=[N+]2C1=C(c1ccccc1)c1c(C)cc(C)n1[B-]2(F)F | 509 |
| CCN(CC)c1ccc2ccc(=O)oc2c1 | 430 |
| CC(C)(C)c1cc2ccc3cc(C(C)(C)C)cc4c3c2c(c1)c(=O)n1c4nc2c3cc(C(C)(C)C)cc4ccc5cc(C(C)(C)C)cc(c5c43)c21 | 544 |
| CN(C)c1ccc(/C=C2\CC/C(=C\c3ccc(N(C)C)cc3)C2=O)cc1 | 565 |
| Cn1c(=O)c(/N=N/c2cc(S(=O)(=O)O)ccc2S(=O)(=O)O)c(O)c2ccccc21 | 491 |
| COC(=O)C(Cc1ccc2oc(-c3ccc(-n4c5ccccc5c5ccccc54)cc3)nc2c1)NC(=O)OC(C)(C)C (centres undefined) | 432.99 |
| CCN(CC)c1ccc2cc(-c3ccc(S(C)(=O)=O)cc3)oc(=O)c2c1 | 487 |
| COc1ccc(N(c2ccc(OC)cc2)c2ccc3ccc4c(B(c5c(C)cc(C)cc5C)c5c(C)cc(C)cc5C)ccc5ccc2c3c54)cc1 | 658 |
| N#C/C=C/c1ccc2ccc3cccc4ccc1c2c34 | 433 |
| c1ccc(N2c3ccccc3Sc3cc(-c4cccc5nc6ccccc6cc45)ccc32)cc1 | 495 |
| CCC1(CC)c2cc(B(c3c(C)cc(C)cc3C)c3c(C)cc(C)cc3C)ccc2-c2ccc(N(c3ccccc3)c3ccccc3)cc21 | 499 |
| O=P1(c2ccccc2)C(c2cc(C(F)(F)F)cc(C(F)(F)F)c2)=Cc2c3ccc4cccc5ccc(c6cc(-c7ccccc7)n1c26)c3c45 (centres undefined) | 526 |
| COc1ccc2c3c(cccc13)C(=O)c1ccccc1-2 | 520.02 |
| O=c1c(Nc2ccccc2)c([O-])c1=[NH+]c1ccccc1 | 490 |
| O=C1c2ccccc2C(=O)N1c1ccc(Cn2cncn2)cc1 | 407 |
| Oc1ccccc1/N=C/c1ccccc1Oc1ccccc1 | 410 |
| CN(C)c1ccc(C#Cc2ccc3ccc4c(C#Cc5ccc(N(C)C)cc5)ccc5ccc2c3c54)cc1 | 569.6 |
| COc1ccc2c(CC(=O)NN)coc2c1 | 396 |
